Source of measurements: patent US20130116227A1

target: aldosterone receptor (Rattus norvegicus); construct: centrifuged at 105,000 g for 30 minutes, and then a supernatant was collected as a renal soluble fraction; test: Binding inhibition test for aldosterone receptor ([3H]aldosterone, rat renal soluble fraction); conditions: [3H]aldosterone 2 nM, rat renal soluble fraction, in the presence of 2 μM RU-486, 4° C. about 18 hours; read-out: MR IC50
pIC50: −log10 of the molar value.
reported-endpoint: pIC50

CS(=O)(=O)c1ccc(NC(=O)c2ccc(-c3ccccc3OC(F)(F)F)c(CN3CCCC(F)(F)C3)c2)cc1 [Example 144]; 6.30

1: CS(=O)(=O)c1ccc(NC(=O)c2ccc(-c3ccccc3OC(F)(F)F)c(CNCc3ccccc3)c2)cc1 [Example 180]
2: CS(=O)(=O)c1ccc(NC(=O)c2ccc(-c3ccccc3OC(F)(F)F)c(CN3CCOCC3)c2)cc1 [Example 162]
Exercise: Pick one, 1 or 2 : lowest reported pIC50. When you have decided, please share the label of that item.
Solution: 2
(2: 6.18, 1: 6.55)

---

Molecular target: aldosterone receptor (Rattus norvegicus, UniProt P22199)
Construct: centrifuged at 105,000 g for 30 minutes, and then a supernatant was collected as a renal soluble fraction
Sequence (P22199 1-981): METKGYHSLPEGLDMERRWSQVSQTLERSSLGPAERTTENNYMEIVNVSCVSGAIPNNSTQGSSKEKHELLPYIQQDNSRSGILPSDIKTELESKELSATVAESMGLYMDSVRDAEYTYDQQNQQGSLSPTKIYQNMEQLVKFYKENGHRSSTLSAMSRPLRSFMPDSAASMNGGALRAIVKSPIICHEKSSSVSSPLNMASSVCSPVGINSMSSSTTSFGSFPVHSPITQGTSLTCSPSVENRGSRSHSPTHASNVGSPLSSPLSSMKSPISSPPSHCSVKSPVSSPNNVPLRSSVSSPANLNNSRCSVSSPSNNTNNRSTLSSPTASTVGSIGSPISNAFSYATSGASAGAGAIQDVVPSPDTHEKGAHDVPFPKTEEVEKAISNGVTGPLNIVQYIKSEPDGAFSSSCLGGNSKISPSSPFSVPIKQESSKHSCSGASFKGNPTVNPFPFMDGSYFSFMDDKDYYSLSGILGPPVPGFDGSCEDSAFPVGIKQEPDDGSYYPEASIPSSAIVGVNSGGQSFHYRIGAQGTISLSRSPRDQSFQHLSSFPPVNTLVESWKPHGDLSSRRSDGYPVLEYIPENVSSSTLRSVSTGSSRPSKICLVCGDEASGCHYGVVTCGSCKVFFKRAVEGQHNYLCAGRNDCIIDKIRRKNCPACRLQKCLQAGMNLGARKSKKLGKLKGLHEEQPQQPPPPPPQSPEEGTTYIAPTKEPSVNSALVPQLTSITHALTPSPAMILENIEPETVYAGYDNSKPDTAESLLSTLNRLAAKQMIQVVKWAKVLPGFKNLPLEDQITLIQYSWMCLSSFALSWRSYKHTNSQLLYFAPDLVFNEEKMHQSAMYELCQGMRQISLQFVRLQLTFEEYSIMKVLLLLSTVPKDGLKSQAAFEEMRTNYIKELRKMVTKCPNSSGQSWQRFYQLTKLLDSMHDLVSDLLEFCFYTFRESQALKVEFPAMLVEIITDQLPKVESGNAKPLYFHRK
Assay: Binding inhibition test for aldosterone receptor ([3H]aldosterone, rat renal soluble fraction)
Settings: [3H]aldosterone 2 nM, rat renal soluble fraction, in the presence of 2 μM RU-486, 4° C. about 18 hours; read-out: MR IC50
reported-endpoint: IC50 (nM)

COc1cc(NC(=O)c2ccc(-c3ccccc3OC(F)(F)F)c(CN(C)C3CC3)c2)ccc1S(N)(=O)=O [Example 294]; 22
COc1ccc(-c2ccc(C(=O)Nc3ccc(S(N)(=O)=O)c(OC)c3)cc2CNCC(F)F)c(C(F)(F)F)c1 [Example 270]; 650
COc1cc(NC(=O)c2ccc(-c3cccnc3C3CCC3)c(C)c2)ccc1S(N)(=O)=O [Example 282]; 730
CCCN(CCC)Cc1cc(C(=O)Nc2ccc(S(C)(=O)=O)cc2)ccc1-c1ccccc1OC(F)(F)F [Example 505]; 290
COc1cc(NC(=O)c2ccc(-c3ccccc3C(F)(F)F)c(CN3CCOCC3)c2)ccc1S(N)(=O)=O [Example 79]; 320

I: CCN(CC)c1cc(C(=O)Nc2ccc(S(N)(=O)=O)c(OC)c2)ccc1-c1ccccc1C(F)(F)F [Example 132]
II: COc1cc(C(=O)Nc2ccc(-c3ccc(O)cc3C(F)(F)F)c(CO)c2)ccc1S(N)(=O)=O [Example 315]
III: CN(Cc1cc(C(=O)Nc2ccc(S(C)(=O)=O)cc2)ccc1-c1ccccc1OC(F)(F)F)C1CCCCC1 [Example 202]
IV: CS(=O)(=O)c1ccc(NC(=O)c2ccc(-c3ccccc3OC(F)(F)F)c(CN3CCCC3)c2)cc1 [Example 160]
V: CCCN(Cc1cc(C(=O)Nc2ccc(S(C)(=O)=O)cc2)ccc1-c1ccccc1OC(F)(F)F)CC1CC1 [Example 500]
Exercise: Order the records, beginning with the lowest IC50 and ending with the highest. Return the labels ranked in the requested order, please.
Solution: V, I, II, III, IV
(V: 190 nM, I: 290 nM, II: 420 nM, III: 760 nM, IV: 2000 nM)

A: COc1cc(NC(=O)c2ccc(-c3ccccc3C(F)(F)F)cc2)ccc1S(N)(=O)=O [Example 10]
B: CCN(CC)Cc1cc(C(=O)Nc2ccc(S(C)(=O)=O)cc2)ccc1-c1ccccc1OC(F)(F)F [Example 159]
Exercise: Pick one, A or B : lowest reported IC50. When you have decided, please share the label of that item.
Solution: B
(B: 290 nM, A: 500 nM)

---

target: aldosterone receptor (Rattus norvegicus, UniProt P22199); construct: centrifuged at 105,000 g for 30 minutes, and then a supernatant was collected as a renal soluble fraction; test: Binding inhibition test for aldosterone receptor ([3H]aldosterone, rat renal soluble fraction); conditions: [3H]aldosterone 2 nM, rat renal soluble fraction, in the presence of 2 μM RU-486, 4° C. about 18 hours; read-out: MR IC50
pIC50: −log10 of the molar value.
Here, each record is paired with measured pIC50 data.

Consider the following illustrative entries.
CS(=O)(=O)c1ccc(NC(=O)c2ccc(-c3ccccc3OC(F)(F)F)c(CNCC(F)F)c2)cc1 [Example 176]; 6.41
COc1cc(C(=O)Nc2ccc(-c3ccccc3CN3CCOCC3)c(C)c2)ccc1S(N)(=O)=O [Example 337]; 5.96
COc1cc(NC(=O)c2ccc(-c3cc(C)ccc3C(F)(F)F)c(CNCC(F)F)c2)ccc1S(N)(=O)=O [Example 443]; > 5.00

Exercise: Enter pIC50 (test system aldosterone receptor (Rattus norvegicus, UniProt P22199)) for COc1cc(NC(=O)c2ccc(-c3ccccc3C3CC3)c(CNCC(F)F)c2)ccc1S(N)(=O)=O [Example 448]
Solution: > 5.00

Exercise: Enter pIC50 (test system aldosterone receptor (Rattus norvegicus, UniProt P22199)) for COc1cc(NC(=O)c2ccc(-c3cccnc3-c3cccnc3)c(C)c2)ccc1S(N)(=O)=O [Example 531]
Solution: > 5.00

Exercise: Enter pIC50 (test system aldosterone receptor (Rattus norvegicus, UniProt P22199)) for CS(=O)(=O)c1ccc(NC(=O)c2ccc(-c3ccccc3OC(F)(F)F)c(CNC[C@H]3CCCO3)c2)cc1 [Example 147]
Solution: > 5.00

Exercise: Enter pIC50 (test system aldosterone receptor (Rattus norvegicus, UniProt P22199)) for COc1cc(NC(=O)c2ccc(-c3ccc(F)cc3C3CC3)c(CNCC(F)F)c2)ccc1S(N)(=O)=O [Example 470]
Solution: > 5.00

---

molecular target: aldosterone receptor (Rattus norvegicus); construct: centrifuged at 105,000 g for 30 minutes, and then a supernatant was collected as a renal soluble fraction; assay: Binding inhibition test for aldosterone receptor ([3H]aldosterone, rat renal soluble fraction); settings: [3H]aldosterone 2 nM, rat renal soluble fraction, in the presence of 2 μM RU-486, 4° C. about 18 hours; read-out: MR IC50
reported-endpoint: IC50 (nM)

Consider the following illustrative entries.
Cn1ccc(CNCc2cc(C(=O)Nc3ccc(S(C)(=O)=O)cc3)ccc2-c2ccccc2OC(F)(F)F)n1; 470
Cn1ccnc1CNCc1cc(C(=O)Nc2ccc(S(C)(=O)=O)cc2)ccc1-c1ccccc1OC(F)(F)F; 370
COc1cc(NC(=O)c2ccc(-c3ccccc3OC(F)(F)F)c(CN3CC(C)OC(C)C3)c2)ccc1S(N)(=O)=O (stereo not drawn); 61
CCN(CC)c1cc(C(=O)Nc2ccc(S(N)(=O)=O)cc2)ccc1-c1ccccc1OC(F)(F)F; 360

1: COc1cc(NC(=O)c2ccc(-c3ccccc3C(C)C)cc2)ccc1S(N)(=O)=O
2: COc1cc(NC(=O)c2ccc(-c3ccccc3OC(F)(F)F)c(CNC3CC3)c2)ccc1S(N)(=O)=O
3: COc1cc(C(=O)Nc2ccc(S(N)(=O)=O)c(OC)c2)ccc1-c1ccccc1C(F)(F)F
4: COc1cc(C(=O)Nc2ccc(-c3ccccc3C(F)(F)F)c(CN3CC(F)(F)C3)c2)ccc1S(N)(=O)=O
Exercise: Order the records, beginning with the lowest IC50 and ending with the highest. Return the labels ranked in the requested order, please.
Solution: 2, 3, 4, 1
